molecular target: T1, Rluc-ADGRG2-ΔGPS-β F772A (mouse, UniProt Q8CJ12-3 38-995, F772A); assay: FRET or BRET; HEK293 cells transfected with Rluc-ADGRG2-ΔGPS-β WT or mutants, stimulated by increasing concentrations of FITC-conjugated VPM-p15; saturation curves fitted with GraphPad; each experiment repeated 6 times; settings: one partner purified
T1 construct: ADGRG2 (GPR64), mouse, ADGRG2-ΔGPS-β: the entire ECD removed; source: HEK293, transfected, on cells; not shown: Rluc, N-terminal, kept
T1 sequence (Q8CJ12 other isoform, or with tags, fused parts or gaps F772A | F772A | F772A F772A): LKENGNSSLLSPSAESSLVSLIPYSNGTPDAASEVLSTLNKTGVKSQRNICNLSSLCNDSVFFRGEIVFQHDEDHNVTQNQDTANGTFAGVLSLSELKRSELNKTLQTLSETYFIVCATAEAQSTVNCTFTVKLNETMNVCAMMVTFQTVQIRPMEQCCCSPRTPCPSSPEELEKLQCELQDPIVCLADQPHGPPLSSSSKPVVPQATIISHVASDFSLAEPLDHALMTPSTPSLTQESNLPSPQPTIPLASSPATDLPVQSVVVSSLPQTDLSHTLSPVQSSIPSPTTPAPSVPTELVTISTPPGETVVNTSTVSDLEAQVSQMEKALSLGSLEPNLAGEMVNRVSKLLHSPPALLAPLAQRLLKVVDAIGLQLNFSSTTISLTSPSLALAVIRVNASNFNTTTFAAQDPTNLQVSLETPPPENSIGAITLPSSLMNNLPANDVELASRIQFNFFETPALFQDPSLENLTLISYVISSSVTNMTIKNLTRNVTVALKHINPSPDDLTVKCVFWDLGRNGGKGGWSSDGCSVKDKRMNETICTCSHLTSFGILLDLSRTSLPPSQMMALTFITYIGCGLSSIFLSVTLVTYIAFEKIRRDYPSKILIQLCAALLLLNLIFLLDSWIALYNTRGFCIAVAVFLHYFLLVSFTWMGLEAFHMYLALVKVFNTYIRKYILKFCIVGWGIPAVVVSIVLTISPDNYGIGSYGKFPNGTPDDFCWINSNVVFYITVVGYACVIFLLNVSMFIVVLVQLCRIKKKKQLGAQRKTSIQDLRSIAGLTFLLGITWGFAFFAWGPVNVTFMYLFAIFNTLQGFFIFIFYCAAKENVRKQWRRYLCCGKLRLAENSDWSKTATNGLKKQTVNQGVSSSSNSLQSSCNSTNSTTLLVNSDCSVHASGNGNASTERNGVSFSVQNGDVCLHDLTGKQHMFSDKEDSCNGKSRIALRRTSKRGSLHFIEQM
pEC50: −log10 of the molar value. Non-standard residues stand in square brackets, D forms with d. Primed or numbered codes have the meaning given here. No end group written: not given here. Phe(4-Me) = Cc1ccc(C[C@H](N)C(=O)O)cc1; FITC′ = not defined here
Assay readout: pEC50

Binder	Measurement
VS[Phe(4-Me)]GILLDLSRTSLP-{FITC′} [FITC-conjugated VPM-p15 (ADGRG2 Stachel peptide p15 T1V/F3Phe(4-Me))]	6.07
